Target Desc: MAGL (Mus musculus (Mouse))
Sequence (O35678 whole entry): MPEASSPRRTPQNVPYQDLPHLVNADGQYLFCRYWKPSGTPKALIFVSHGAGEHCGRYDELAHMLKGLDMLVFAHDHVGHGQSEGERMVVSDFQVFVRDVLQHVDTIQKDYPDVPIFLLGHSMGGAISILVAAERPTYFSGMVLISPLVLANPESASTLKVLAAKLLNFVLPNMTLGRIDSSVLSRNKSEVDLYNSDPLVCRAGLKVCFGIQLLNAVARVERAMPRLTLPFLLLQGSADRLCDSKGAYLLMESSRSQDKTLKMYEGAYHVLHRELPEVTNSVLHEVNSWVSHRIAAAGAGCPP
Protocol Summary: In vitro competitive activity-based protein profiling (FP-Rh), mouse MAGL
Assay type: biochemical
Applied Conditions: mouse brain membrane proteome, competitive ABPP (Table 7)
Measured Attribute: IC50

Field: example entries. Status: answers known.
Compound | Measurement
O=C(OC(C(F)(F)F)C(F)(F)F)N1CCN(Cc2ccc(N3CCOCC3)cc2Cl)CC1 | 100 to 1000 nM
CC(=O)N[C@H]1CCN(c2cc(Cl)ccc2CN2CCN(C(=O)OC(C(F)(F)F)C(F)(F)F)CC2)C1 | < 100 nM
O=C(OC(C(F)(F)F)C(F)(F)F)N1CCN(Cc2ccc(-c3ccccc3)cc2C(=O)N2CCCC2)CC1 [Example 11y] | < 100 nM
Cc1cc(N2CCCC2)ccc1CN1CCN(C(=O)OC(C(F)(F)F)C(F)(F)F)CC1 | 100 to 1000 nM
COc1cc(-c2ccccc2)ccc1CN1CCN(C(=O)OC(C(F)(F)F)C(F)(F)F)CC1 [Example 11j] | < 100 nM
CC(C)c1cc(N2CCCC2)ccc1CN1CCN(C(=O)OC(C(F)(F)F)C(F)(F)F)CC1 | > 1000 nM

Now let's try a different one.
Exam item: I am curious: what IC50 value has been reported for CC(C)n1cc(CN2CCN(C(=O)OC(C(F)(F)F)C(F)(F)F)CC2)c(-c2ccccc2Cl)n1 [Example 10i] ?
Marked response: < 100 nM

---

Target Desc: MAGL (Mus musculus (Mouse))
Protocol Summary: In vitro competitive activity-based protein profiling (FP-Rh), mouse MAGL
Assay type: biochemical
Applied Conditions: mouse brain membrane proteome, competitive ABPP
Measured Attribute: IC50

Field: example entries. Status: answers known.
Compound | Measured Attribute | Measurement
O=C(OC(C(F)(F)F)C(F)(F)F)N1CCN(C(c2ccc3c(c2)CCO3)c2ccc3c(c2)CCO3)CC1 [Example 2e] | IC50 | < 100 nM
O=C(OC(C(F)(F)F)C(F)(F)F)N1CCN(C(c2ccc(-c3ccccc3)cc2)c2ccc3c(c2)OCO3)CC1 (stereo not shown) [Example 2g] | IC50 | > 1000 nM
CNC(=O)C(OC(=O)N1CCN(C(c2ccc(Cl)cc2)c2ccc(Cl)cc2)CC1)C(F)(F)F (stereo not shown) [Example 6j] | IC50 | 100 to 1000 nM

Now let's try a different one.
Exam item: I am curious: what IC50 value has been reported for COc1ccc(N2CCN(C(=O)OC(C(F)(F)F)C(F)(F)F)CC2)cc1 [Example 3e] ?
Marked response: > 1000 nM

---

Target Desc: Human MAGL (Homo sapiens (Human), UniProt Q99685)
Sequence (Q99685 whole entry): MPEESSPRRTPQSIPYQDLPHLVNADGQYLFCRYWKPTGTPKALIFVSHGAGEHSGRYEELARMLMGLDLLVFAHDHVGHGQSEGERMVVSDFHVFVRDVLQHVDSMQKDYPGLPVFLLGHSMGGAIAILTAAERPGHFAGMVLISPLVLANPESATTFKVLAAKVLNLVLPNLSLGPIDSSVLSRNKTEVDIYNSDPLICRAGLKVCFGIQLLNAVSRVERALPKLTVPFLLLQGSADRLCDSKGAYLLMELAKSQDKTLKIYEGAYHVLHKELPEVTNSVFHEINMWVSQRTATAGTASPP
Protocol Summary: Competitive ABPP with recombinant human MAGL expressed in HEK293T cells
Format: biochemical
Applied Conditions: hMAGL in HEK293T cell lysates
Procedure: Proteomes (mouse brain membrane fraction or cell lysates) ([…], 1.0 mg/mL total protein concentration) were preincubated with varying concentrations of inhibitors at 37° C. After 30 min, FP-Rh (1.0 μL, 50 μM in DMSO) was added and the mixture was incubated for another 30 min at 37° C. Reactions were quenched with SDS loading buffer (50 μL—4×) and run on SDS-PAGE. Recombinant Expression of Human MAGL in HEK293T Cells. […]
pIC50: −log10 of the molar value.
The compounds listed here are annotated with their pIC50.

Field: example entries. Status: answers known.
Compound | pIC50
CC(C)(C)c1ccc(S(=O)(=O)N2CCN(C(=O)OC(C(F)(F)F)C(F)(F)F)CC2)cc1 [Example 4c] | > 7.00
CN(Cc1cccc(-c2cccnc2)c1)C(=O)OC(C(F)(F)F)C(F)(F)F [Example 3g] | > 7.00

Exam item: I am curious: what pIC50 value has been reported for O=C(OC(C(F)(F)F)C(F)(F)F)N1CCN(C(c2ccc(F)cc2)c2ccc(F)cc2)CC1 [Example 2a] ?
Marked response: > 7.00

Exam item: I am curious: what pIC50 value has been reported for O=C(OC(C(F)(F)F)C(F)(F)F)N1CCN(S(=O)(=O)c2ccccc2)CC1 [Example 4a] ?
Marked response: 6.00 to 7.00

Exam item: I am curious: what pIC50 value has been reported for O=C(OC(C(F)(F)F)C(F)(F)F)N1CCN(C(=O)c2ccc(-c3ccccc3)cc2)CC1 [Example 3c] ?
Marked response: < 6.00

Exam item: I am curious: what pIC50 value has been reported for O=C(OC(C(F)(F)F)C(F)(F)F)N1CCN(C(c2ccc(Br)cc2)c2ccc(Br)cc2)CC1 [Example 2c] ?
Marked response: > 7.00

Exam item: I am curious: what pIC50 value has been reported for O=C(OC(C(F)(F)F)C(F)(F)F)N1CCN(C(c2ccc3c(c2)OC(F)(F)O3)c2ccc3c(c2)OC(F)(F)O3)CC1 [Example 2f] ?
Marked response: > 7.00
